Data origin: ChEMBL document CHEMBL2417424

- System: Pseudomonas aeruginosa
- protocol_notes: Antimicrobial activity against Pseudomonas aeruginosa PAO1 after 22 hrs by MTT assay
- Assay type: functional
- measurement_setup: PAO1, 22 h
Friendly reminder: MIC below 5 µg/mL is rule met, at or above is rule not met.

C[C@](O)(c1c[nH]nn1)[C@H](NC(=O)c1ccc(C#CC#Cc2ccc(N)cc2)cc1)C(=O)NO    rule met
Nc1ccc(C#CC#Cc2ccc(C(=O)N[C@@H](Cc3c[nH]cn3)C(=O)NO)cc2)cc1    rule not met
C[C@@H](O)[C@H](NC(=O)c1ccc(C#Cc2ccc(CN3CCOCC3)cc2)cc1)C(=O)NO    rule met
Nc1ccc(C#CC#Cc2ccc(C(=O)N[C@H](C(=O)NO)[C@H](O)c3ccc(O)cc3)cc2)cc1    rule not met
Nc1ccc(C#CC#Cc2ccc(C(=O)N[C@@H](Cc3ccc(O)cc3)C(=O)NO)cc2)cc1    rule not met
Nc1ccc(C#CC#Cc2ccc(C(=O)N[C@@H](Cc3ccccc3)C(=O)NO)cc2)cc1    rule not met
Nc1ccc(C#CC#Cc2ccc(C(=O)N[C@H](C(=O)NO)[C@@H](O)c3ccc(O)cc3)cc2)cc1    rule met
C[C@@H](O)[C@H](NC(=O)c1ccc(C#CC#Cc2ccc(N)cc2)cc1)C(=O)NO    rule met
Nc1ccc(C#CC#Cc2ccc(C(=O)N[C@@H](Cc3c[nH]c4ccccc34)C(=O)NO)cc2)cc1    rule not met
C[C@](O)(c1ccc(O)cc1)[C@H](NC(=O)c1ccc(C#CC#Cc2ccc(N)cc2)cc1)C(=O)NO    rule met
